These measurements were taken from patent US20060257938A1.

assay_explanation: Probe fluorescence ratio response to linolenic acid relative to ADIFAB2
Type: binding
recorded_conditions: response relative to ADIFAB2
property_measured: DR/DR LNA
# respond with the number and nothing more

molecule: 11G, 72A (protein, listed as Rattus norvegicus, PEPTIDE (1)...(131) wild-type rat intestinal fatty acid binding protein) AFDGTWKVDRGENYEKFMEKMGINVVKRKLGAHDNLKLTITQEGNKFTVKESSNFRNIDVVFELGVDFAYSAADGTELTGTWTMEGNKLVGKFKRVDNGKELIAVREISGNELIQTYTYEGVEAKRIFKKE
DR/DR LNA: 0.67
--
molecule: 102A, 72A (protein, listed as Rattus norvegicus, PEPTIDE (1)...(131) wild-type rat intestinal fatty acid binding protein) AFDGTWKVDRNENYEKFMEKMGINVVKRKLGAHDNLKLTITQEGNKFTVKESSNFRNIDVVFELGVDFAYSAADGTELTGTWTMEGNKLVGKFKRVDNGKEAIAVREISGNELIQTYTYEGVEAKRIFKKE
DR/DR LNA: 0.44
--
molecule: 115H1, 72A (protein, listed as Rattus norvegicus, PEPTIDE (1)...(131) wild-type rat intestinal fatty acid binding protein) AFDGTWKVDRNENYEKFMEKMGINVVKRKLGAHDNLKLTITQEGNKFTVKESSNFRNIDVVFELGVDFAYSAADGTELTGTWTMEGNKLVGKFKRVDNGKELIAVREISGNELIHTYTYEGVEAKRIFKKE
DR/DR LNA: 0.70

Q: // lookup DR/DR LNA for 72T 73I 74A (protein, listed as Rattus norvegicus, PEPTIDE (1)...(131) wild-type rat intestinal fatty acid binding protein) AFDGTWKVDRNENYEKFMEKMGINVVKRKLGAHDNLKLTITQEGNKFTVKESSNFRNIDVVFELGVDFAYSTIAGTELTGTWTMEGNKLVGKFKRVDNGKELIAVREISGNELIQTYTYEGVEAKRIFKKE
Ans: 1.944

Q: Data request, read-out DR/DR LNA, for 36K, 72A (protein, listed as Rattus norvegicus, PEPTIDE (1)...(131) wild-type rat intestinal fatty acid binding protein) AFDGTWKVDRNENYEKFMEKMGINVVKRKLGAHDNKKLTITQEGNKFTVKESSNFRNIDVVFELGVDFAYSAADGTELTGTWTMEGNKLVGKFKRVDNGKELIAVREISGNELIQTYTYEGVEAKRIFKKE
Ans: 0.42

Q: Can you share its DR/DR LNA? I mean this molecule: 62P, 72A (protein, listed as Rattus norvegicus, PEPTIDE (1)...(131) wild-type rat intestinal fatty acid binding protein) AFDGTWKVDRNENYEKFMEKMGINVVKRKLGAHDNLKLTITQEGNKFTVKESSNFRNIDVVPELGVDFAYSAADGTELTGTWTMEGNKLVGKFKRVDNGKELIAVREISGNELIQTYTYEGVEAKRIFKKE
Ans: 1.581
